The measured values listed here are drawn from patent US20240376121A1.

Target: HiBit-BRG1 fusion protein (Homo sapiens)
Construct: expressed in transfected cells
Test: HiBiT-BRG1 cell-based degradation assay (Nano-Glo HiBiT Lytic Detection)
Details: stable HeLa cell line expressing HiBit-BRG1 and LgBit, 24 h incubation, top dose 30 μM; read-out: BRG1 HiBit Degradation Maximum (%)
Readout Kind: Dmax

Cc1ncsc1-c1ccc([C@H](C)NC(=O)[C@@H]2C[C@@H](O)CN2C(=O)[C@@H](c2cc(C34CC(C(=O)N5CCC(c6sc7nnc(-c8ccccc8O)cc7c6C)CC5)(C3)C4)no2)C(C)C)cc1 [Compound 64] = ≥ 75%
Cc1ncsc1-c1ccc([C@H](C)NC(=O)[C@@H]2C[C@@H](O)CN2C(=O)[C@@H](NC(=O)[C@H]2CC[C@@H](c3sc4nnc(-c5ccccc5O)cc4c3C)CC2)C(C)(C)C)cc1 [Compound 50] = < 50%
Cc1ncsc1-c1ccc([C@H](C)NC(=O)[C@@H]2C[C@@H](O)CN2C(=O)[C@@H](c2cc(N3CCC(CN4CC(c5cc6nnc(-c7ccccc7O)cc6s5)C4)CC3)no2)C(C)C)cc1 [Compound 103] = < 50%
Cc1ncsc1-c1ccc([C@H](C)NC(=O)[C@@H]2C[C@@H](O)CN2C(=O)[C@@H](c2cc(N3CCC(C(=O)N4CCC(c5sc6nnc(-c7ccccc7O)cc6c5C)CC4)CC3)no2)C(C)C)cc1 [Compound 98] = ≥ 50%
Cc1ncsc1-c1ccc([C@H](C)NC(=O)[C@@H]2C[C@@H](O)CN2C(=O)[C@@H](c2cc(OCCN3C[C@H]4C[C@@H](C3)[C@@H]4c3sc4nnc(-c5ccccc5O)cc4c3C)no2)C(C)C)cc1 [Compound 63] = < 50%
Cc1ncsc1-c1ccc(CNC(=O)[C@@H]2C[C@@H](O)CN2C(=O)[C@@H](NC(=O)CCC(=O)N2CCC(c3cc4cc(-c5ccccc5O)nnc4s3)CC2)C(C)(C)C)cc1 [Compound 27] = < 50%
Cc1ncsc1-c1ccc([C@H](C)NC(=O)[C@@H]2C[C@@H](O)CN2C(=O)[C@@H](c2cc(OCCN[C@@H]3CCc4sc5nnc(-c6ccccc6O)cc5c4C3)no2)C(C)C)cc1 [Compound 40] = < 50%

Prompt: Entry Cc1ncsc1-c1ccc([C@H](C)NC(=O)[C@@H]2C[C@@H](O)CN2C(=O)[C@@H](c2cc(OCC(=O)N3CCC(c4sc5nnc(-c6ccccc6O)cc5c4C)CC3)no2)C(C)C)cc1 [Compound 93] : reported Dmax = ?
Response: < 50%

----------
Target: HiBit-BRM fusion protein (Homo sapiens, UniProt P51531)
Construct: expressed in transfected cells
Sequence (P51531 whole entry, the tested form may be a part): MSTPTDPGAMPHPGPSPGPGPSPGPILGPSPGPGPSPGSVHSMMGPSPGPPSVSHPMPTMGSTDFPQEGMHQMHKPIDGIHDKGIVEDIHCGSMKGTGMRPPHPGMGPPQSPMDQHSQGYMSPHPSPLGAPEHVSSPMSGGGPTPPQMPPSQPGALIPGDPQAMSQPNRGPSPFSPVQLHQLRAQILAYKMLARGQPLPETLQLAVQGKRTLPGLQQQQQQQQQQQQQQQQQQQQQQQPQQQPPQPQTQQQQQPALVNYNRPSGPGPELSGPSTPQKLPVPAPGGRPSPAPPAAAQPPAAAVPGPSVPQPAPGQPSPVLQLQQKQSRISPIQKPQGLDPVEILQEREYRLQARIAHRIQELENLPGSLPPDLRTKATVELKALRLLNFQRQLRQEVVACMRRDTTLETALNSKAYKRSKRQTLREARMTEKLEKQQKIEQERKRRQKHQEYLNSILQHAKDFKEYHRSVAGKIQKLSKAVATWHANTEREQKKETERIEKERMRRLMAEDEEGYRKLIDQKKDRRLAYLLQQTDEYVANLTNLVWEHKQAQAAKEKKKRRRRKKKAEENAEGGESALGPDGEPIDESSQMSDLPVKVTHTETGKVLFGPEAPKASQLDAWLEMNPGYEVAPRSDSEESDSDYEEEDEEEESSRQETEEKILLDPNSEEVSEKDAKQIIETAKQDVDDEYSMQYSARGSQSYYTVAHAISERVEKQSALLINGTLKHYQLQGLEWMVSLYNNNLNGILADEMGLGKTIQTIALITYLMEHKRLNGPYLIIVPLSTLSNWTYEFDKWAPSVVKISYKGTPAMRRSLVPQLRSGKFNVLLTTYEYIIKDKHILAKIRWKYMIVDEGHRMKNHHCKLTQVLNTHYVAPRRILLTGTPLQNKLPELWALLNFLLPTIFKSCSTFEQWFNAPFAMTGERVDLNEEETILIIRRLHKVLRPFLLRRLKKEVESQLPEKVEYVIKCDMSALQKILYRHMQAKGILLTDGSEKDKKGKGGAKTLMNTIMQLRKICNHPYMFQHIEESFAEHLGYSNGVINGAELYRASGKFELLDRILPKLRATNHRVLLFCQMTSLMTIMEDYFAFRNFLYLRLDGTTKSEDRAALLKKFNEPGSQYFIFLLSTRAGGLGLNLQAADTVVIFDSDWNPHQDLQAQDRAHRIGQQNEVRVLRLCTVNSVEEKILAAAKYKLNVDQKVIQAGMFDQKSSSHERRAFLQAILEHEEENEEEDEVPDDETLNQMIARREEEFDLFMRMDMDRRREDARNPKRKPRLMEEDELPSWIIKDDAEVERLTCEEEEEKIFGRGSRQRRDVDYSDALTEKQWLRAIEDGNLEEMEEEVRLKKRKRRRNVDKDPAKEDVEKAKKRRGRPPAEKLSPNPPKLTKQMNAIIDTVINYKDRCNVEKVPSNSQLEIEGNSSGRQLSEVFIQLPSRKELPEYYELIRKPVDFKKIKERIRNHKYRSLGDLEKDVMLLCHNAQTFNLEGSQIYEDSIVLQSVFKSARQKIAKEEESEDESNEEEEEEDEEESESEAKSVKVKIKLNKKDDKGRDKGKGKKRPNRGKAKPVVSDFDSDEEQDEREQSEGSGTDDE
Assay: HiBiT-BRM cell-based degradation assay (Nano-Glo HiBiT Lytic Detection)
Details: stable HeLa cell line expressing HiBiT-BRM, 24 h incubation; read-out: BRM HiBit Degradation IC50
Readout Kind: DC50

Previously resolved entries follow.
Cc1ncsc1-c1ccc(CNC(=O)[C@@H]2C[C@@H](O)CN2C(=O)[C@@H](NC(=O)C2(F)CC2)C(C)(C)C)c(OCCN2CCC(c3sc4nnc(-c5ccccc5O)cc4c3C)CC2)c1 = ≥ 1 µM
Cc1ncsc1-c1ccc([C@H](C)NC(=O)[C@@H]2C[C@@H](O)CN2C(=O)[C@@H](c2cc(OCCN[C@@H]3CCc4sc5nnc(-c6ccccc6O)cc5c4C3)no2)C(C)C)cc1 = ≥ 1 µM
Cc1ncsc1-c1ccc(CNC(=O)[C@@H]2C[C@@H](O)CN2C(=O)[C@@H](NC(=O)C2(F)CC2)C(C)(C)C)c(OCCCN2CCC(c3sc4nnc(-c5ccccc5O)cc4c3C)CC2)c1 = ≥ 0.01 µM

Take each entry in turn and give its DC50.
1. Cc1ncsc1-c1ccc(CNC(=O)[C@H]2C[C@H](O)CN2C(=O)[C@H](NC(=O)CCC(=O)N2CC(c3sc4nnc(-c5ccccc5O)cc4c3C)C2)C(C)(C)C)cc1
2. Cc1ncsc1-c1ccc([C@H](C)NC(=O)[C@@H]2C[C@@H](O)CN2C(=O)[C@@H](c2cc(OCCN3CC(c4csc5nnc(-c6ccccc6O)cc45)C3)no2)C(C)C)cc1

Response:
1: ≥ 1 µM; 2: ≥ 1 µM

----------
Target: HiBit-BRM fusion protein (Homo sapiens, UniProt P51531)
Construct: expressed in transfected cells
Test: HiBiT-BRM cell-based degradation assay (Nano-Glo HiBiT Lytic Detection)
Conditions: stable HeLa cell line expressing HiBiT-BRM, 24 h incubation; read-out: BRM HiBit Degradation IC50
Readout Kind: DC50

Cc1ncsc1-c1ccc([C@H](C)NC(=O)[C@@H]2C[C@@H](O)CN2C(=O)[C@@H](c2cc(OCCN3CCN(c4cc5nnc(-c6ccccc6O)cc5s4)CC3)no2)C(C)C)cc1 = < 10 nM

Take each entry in turn and give its DC50.
1. Cc1ncsc1-c1ccc([C@H](C)NC(=O)[C@@H]2C[C@@H](O)CN2C(=O)[C@@H](c2cc(OCCNC(=O)[C@@H]3CCc4sc5nnc(-c6ccccc6O)cc5c4C3)no2)C(C)C)cc1
2. Cc1ncsc1-c1ccc([C@H](C)NC(=O)[C@@H]2C[C@@H](O)CN2C(=O)C(c2cc(C3CC(N4CCC(c5sc6nnc(-c7ccccc7O)cc6c5C)CC4)C3)no2)C(C)C)cc1 (single isomer, unassigned)
3. Cc1ncsc1-c1ccc([C@H](C)NC(=O)[C@@H]2C[C@@H](O)CN2C(=O)[C@@H](c2cc(N3CCN(C(=O)[C@H]4CCc5sc6nnc(-c7ccccc7O)cc6c5C4)CC3)no2)C(C)C)cc1

Response:
1. ≥ 1000 nM
2. ≥ 10 nM
3. ≥ 1000 nM

Prompt: What value of DC50 on HiBit-BRM fusion protein (Homo sapiens, UniProt P51531) does Cc1ncsc1-c1ccc([C@H](C)NC(=O)[C@@H]2C[C@@H](O)CN2C(=O)[C@@H](c2cc(OCCN3C[C@@H]4[C@H](C3)[C@H]4c3cc4cc(-c5ccccc5O)nnc4s3)no2)C(C)C)cc1 have?
Response: ≥ 10 nM

----------
Molecular target: HiBit-BRG1 fusion protein (Homo sapiens, UniProt P51532)
Construct: expressed in transfected cells
Sequence (P51532 whole entry, the tested form may be a part): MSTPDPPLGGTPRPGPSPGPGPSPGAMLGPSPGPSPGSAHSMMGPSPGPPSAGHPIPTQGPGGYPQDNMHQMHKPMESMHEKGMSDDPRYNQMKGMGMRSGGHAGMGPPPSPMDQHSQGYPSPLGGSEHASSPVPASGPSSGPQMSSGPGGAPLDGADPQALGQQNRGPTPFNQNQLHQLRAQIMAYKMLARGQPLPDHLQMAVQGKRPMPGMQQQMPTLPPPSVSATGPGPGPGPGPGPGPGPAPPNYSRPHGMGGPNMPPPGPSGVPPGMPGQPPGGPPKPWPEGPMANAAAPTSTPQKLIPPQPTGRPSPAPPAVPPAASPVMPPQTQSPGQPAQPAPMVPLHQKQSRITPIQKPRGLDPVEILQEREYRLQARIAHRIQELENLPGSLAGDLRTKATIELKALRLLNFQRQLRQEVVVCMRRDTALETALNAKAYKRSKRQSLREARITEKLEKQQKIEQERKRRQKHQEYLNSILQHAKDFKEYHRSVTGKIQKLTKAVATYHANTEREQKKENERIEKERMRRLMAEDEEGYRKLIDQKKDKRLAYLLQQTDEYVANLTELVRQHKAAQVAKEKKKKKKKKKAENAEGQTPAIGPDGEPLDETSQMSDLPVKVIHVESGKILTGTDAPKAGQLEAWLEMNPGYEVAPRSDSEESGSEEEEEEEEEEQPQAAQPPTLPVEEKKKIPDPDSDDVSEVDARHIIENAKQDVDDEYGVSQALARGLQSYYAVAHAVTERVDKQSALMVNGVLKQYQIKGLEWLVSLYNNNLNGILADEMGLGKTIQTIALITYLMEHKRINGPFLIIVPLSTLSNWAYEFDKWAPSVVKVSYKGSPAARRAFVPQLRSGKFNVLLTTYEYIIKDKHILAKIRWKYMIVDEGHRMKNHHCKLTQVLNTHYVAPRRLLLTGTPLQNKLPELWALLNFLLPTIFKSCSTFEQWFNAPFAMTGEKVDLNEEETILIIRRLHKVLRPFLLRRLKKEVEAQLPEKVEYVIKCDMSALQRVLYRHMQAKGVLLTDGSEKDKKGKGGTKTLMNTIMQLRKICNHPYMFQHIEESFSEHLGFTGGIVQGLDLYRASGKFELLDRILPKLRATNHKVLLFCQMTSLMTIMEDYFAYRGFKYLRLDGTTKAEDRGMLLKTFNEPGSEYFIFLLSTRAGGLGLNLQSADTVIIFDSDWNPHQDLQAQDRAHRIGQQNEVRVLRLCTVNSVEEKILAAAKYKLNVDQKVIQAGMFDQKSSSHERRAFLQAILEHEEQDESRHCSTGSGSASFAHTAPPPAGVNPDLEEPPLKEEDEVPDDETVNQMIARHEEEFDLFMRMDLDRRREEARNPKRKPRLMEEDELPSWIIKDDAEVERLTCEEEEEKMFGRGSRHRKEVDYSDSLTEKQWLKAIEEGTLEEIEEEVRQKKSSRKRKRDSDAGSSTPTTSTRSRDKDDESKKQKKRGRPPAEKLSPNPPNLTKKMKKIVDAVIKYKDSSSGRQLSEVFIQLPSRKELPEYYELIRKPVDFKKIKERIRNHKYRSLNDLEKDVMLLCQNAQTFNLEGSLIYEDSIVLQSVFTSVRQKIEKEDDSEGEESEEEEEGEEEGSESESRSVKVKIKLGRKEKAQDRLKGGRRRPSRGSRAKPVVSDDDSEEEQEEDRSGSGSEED
Experiment: HiBiT-BRG1 cell-based degradation assay (Nano-Glo HiBiT Lytic Detection)
Settings: stable HeLa cell line expressing HiBit-BRG1 and LgBit, 24 h incubation, top dose 30 μM; read-out: BRG1 HiBit Degradation Maximum (%)
Readout Kind: Dmax

Previously resolved entries follow.
Cc1ncsc1-c1ccc([C@H](C)NC(=O)[C@@H]2C[C@@H](O)CN2C(=O)[C@@H](c2cc(OCCN[C@H]3CCc4sc5nnc(-c6ccccc6O)cc5c4C3)no2)C(C)C)cc1 = < 50%
Cc1ncsc1-c1ccc([C@H](C)NC(=O)[C@@H]2C[C@@H](O)CN2C(=O)[C@@H](c2cc(C3CCN(C(=O)[C@@H]4CCc5sc6nnc(-c7ccccc7O)cc6c5C4)CC3)no2)C(C)C)cc1 = < 50%
Cc1ncsc1-c1ccc([C@H](C)NC(=O)[C@@H]2C[C@@H](O)CN2C(=O)[C@@H](c2cc(OCCN3C[C@H]4C[C@@H](C3)[C@H]4c3sc4nnc(-c5ccccc5O)cc4c3C)no2)C(C)C)cc1 = < 50%
Cc1ncsc1-c1ccc([C@H](C)NC(=O)[C@@H]2C[C@@H](O)CN2C(=O)[C@@H](c2cc(N3CCC(N4CC(c5sc6nnc(-c7ccccc7O)cc6c5C)C4)CC3)no2)C(C)C)cc1 = < 50%

Prompt: Entry Cc1ncsc1-c1ccc([C@H](C)NC(=O)[C@@H]2C[C@@H](O)CN2C(=O)[C@@H](c2cc(OCCCN3CCC(c4sc5nnc(-c6ccccc6O)cc5c4C)CC3)no2)C(C)C)cc1 : reported Dmax = ?
Response: < 50%

----------
Target: HiBit-BRG1 fusion protein (Homo sapiens, UniProt P51532)
Construct: expressed in transfected cells
Assay: HiBiT-BRG1 cell-based degradation assay (Nano-Glo HiBiT Lytic Detection)
Conditions: stable HeLa cell line expressing HiBit-BRG1 and LgBit, 24 h incubation, top dose 30 μM; read-out: BRG1 HiBit Degradation Maximum (%)
Readout Kind: Dmax

Previously resolved entries follow.
Cc1ncsc1-c1ccc([C@H](C)NC(=O)[C@@H]2C[C@@H](O)CN2C(=O)[C@@H](c2cc(C34CC(CN5CCC(c6sc7nnc(-c8ccccc8O)cc7c6C)CC5)(C3)C4)no2)C(C)C)cc1 = ≥ 75%
Cc1ncsc1-c1ccc([C@H](C)NC(=O)[C@@H]2C[C@@H](O)CN2C(=O)[C@@H](c2cc(OCCN3CC(Cc4sc5nnc(-c6ccccc6O)cc5c4C)C3)no2)C(C)C)cc1 = < 50%

The record that follows has no Dmax shown yet.
Prompt: Entry Cc1ncsc1-c1ccc([C@H](C)NC(=O)[C@@H]2C[C@@H](O)CN2C(=O)[C@@H](c2cc(N3CCN(C(=O)CN4CC(c5cc6cc(-c7ccccc7O)nnc6s5)C4)CC3)no2)C(C)C)cc1 : reported Dmax = ?
Response: < 50%
